Source listed as PubChem BioAssay.

Answer each item with its documented growth inhibition.
Method Notes: inhibition of 3D7 malaria parasite growth – strain 3D7 (AID 2306);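 also: 0% = DMSO wells and 100% = chloroquine plus artemisinin control wells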
Recorded Conditions: P. falciparum 3D7 erythrocytic growth, LDH absorbance, 72 h; at 2 µM; active compounds read high
Field format: number, assumed %, no unit text.

Problem: Item O=C(/C=C/c1ccc(Cl)c(Cl)c1)NCCCCCN1CCCN(C(=O)Nc2cc(F)cc(F)c2)CC1 : provide growth inhibition
Result: 94

Problem: Item CCn1c(-c2nonc2N)nc2c(-c3cccc(Cl)c3)ncc(OCCCNCc3cnc(C)nc3N)c21 : provide growth inhibition
Result: 93

Problem: Item O=C(c1ccccc1)N1CCC[C@](CCCN2CCN(c3ccccc3O)CC2)(c2ccc(Cl)c(Cl)c2)C1 : provide growth inhibition
Result: 80

Problem: Item N#Cc1cccc(C(=O)Nc2cccc(-c3ccc(CN4CCC(O)CC4)cc3)c2)c1 : provide growth inhibition
Result: 86

Problem: Item Cc1cc(C(=O)OCC(=O)Nc2c(C)n(C)n(-c3ccccc3)c2=O)c(C)n1-c1ccc(F)cc1 : provide growth inhibition
Result: 100

Problem: Item CCCCCCCN1CC[C@@H](CCCc2ccnc3ccc(OC)cc23)[C@@H](CNC)C1 : provide growth inhibition
Result: 101

Problem: Item O=C(Nc1ccc2c(c1)CN(Cc1ccc(N3CCCC3)o1)CCC2)c1cncs1 : provide growth inhibition
Result: 84

Problem: Item CCn1c(O)c(N=NC(=S)N2CCCC2)c2ccccc21 : provide growth inhibition
Result: 91

Problem: Item CCn1c(-c2nonc2N)nc2c(-c3cccc(NC(=O)Nc4ccc(C(F)(F)F)cc4)c3)ncc(OCCCN)c21 : provide growth inhibition
Result: 94

Problem: Item N#Cc1ccc(N2CCN(Cc3cccc(-c4ccc(-c5nc6ccc(C(F)(F)F)cc6[nH]5)cc4)c3)CC2)nc1 : provide growth inhibition
Result: 101

Problem: Item O=C(NCc1ccc(Cl)c(Cl)c1)c1ccc(C2CCCN(Cc3ccc4nc[nH]c4c3)C2)cc1 (configuration not stated) : provide growth inhibition
Result: 100

Problem: Item CC1CCc2sc(-c3nnc(SC(C)C(=O)N4CCCC4)o3)cc2C1 (configuration not stated) : provide growth inhibition
Result: 93

* * *

Method Notes: ovarian cancer cell viability with rucaparib, profiling panel, oncology-focused library, rucaparib conditional (AID 1508598)
Recorded Conditions: patient-derived ovarian cancer cells, CellTiter-Glo viability, 144 h; at 0.0195 µM; OCI-P5x cells; with rucaparib 20 µM; 100% = cells with rucaparib alone
Calls of active or inactive are those of the source.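 The calls were made as follows: active = normalized viability below 100% at a tested concentration; inactive = the rest.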
I would appreciate it if you answered using one of these outcomes: active, inactive

Problem: # fetch the recorded call for C[C@@H](N)C1CCC(C(=O)Nc2ccncc2)CC1 (stereo partly specified) here
Result: active

Problem: # fetch the recorded call for CC(C)c1onc(-c2c(Cl)cccc2Cl)c1COc1ccc(/C=C/c2cccc(C(=O)O)c2)c(Cl)c1 here
Result: inactive

Problem: # fetch the recorded call for O=C1CN2Cc3c(ccc(Cl)c3Cl)N=C2N1 here
Result: active

Problem: # fetch the recorded call for N#Cc1c(O)c2c(-c3ccc(-c4ccccc4O)cc3)csc2[nH]c1=O here
Result: inactive

Problem: # fetch the recorded call for Nc1nc(Cl)nc2c1ncn2[C@H]1C[C@H](O)[C@@H](CO)O1 here
Result: inactive

Problem: # fetch the recorded call for Nc1nc(F)nc2c1ncn2[C@@H]1O[C@H](COP(=O)(O)O)[C@@H](O)[C@@H]1O here
Result: inactive

* * *

Tgt: L-lactate dehydrogenase (Plasmodium falciparum (isolate CDC / Honduras)) (UniProt Q27743)
Sequence (Q27743 whole entry, looked up): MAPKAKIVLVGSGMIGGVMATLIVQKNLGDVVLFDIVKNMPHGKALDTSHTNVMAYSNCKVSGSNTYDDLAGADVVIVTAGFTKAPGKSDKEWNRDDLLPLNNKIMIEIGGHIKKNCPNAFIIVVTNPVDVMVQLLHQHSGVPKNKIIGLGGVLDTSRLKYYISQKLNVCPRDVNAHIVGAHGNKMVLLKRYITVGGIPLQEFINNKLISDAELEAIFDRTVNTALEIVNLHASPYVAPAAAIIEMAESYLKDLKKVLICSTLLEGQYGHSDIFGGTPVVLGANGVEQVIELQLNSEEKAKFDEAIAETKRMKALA
Method Notes: PfLDH activity inhibition – cell lysate, 3D7 strain, counter-screen for P. falciparum growth inhibition project (AID 2304);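 also: 0% = vehicle and 100% = reference inhibitor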
Recorded Conditions: P. falciparum 3D7 crude extract, LDH APAD/NBT absorbance; at 2 µM; active compounds read high
Calls of active or inactive are those of the source. No rule for the calls is given here.
Measurement Type: inhibition

Problem: State, for L-lactate dehydrogenase (Plasmodium falciparum (isolate CDC / Honduras)) (UniProt Q27743), measured inhibition of the compound listed here: COc1ccc(-c2cnc3ccc(NCc4ccc(S(N)(=O)=O)cc4)nn23)cn1
Result: 0% (inactive)

Problem: State, for L-lactate dehydrogenase (Plasmodium falciparum (isolate CDC / Honduras)) (UniProt Q27743), measured inhibition of the compound listed here: CCOc1cc(Cc2cnc(N)nc2N)cc(OCC)c1OCC
Result: 5% (inactive)

Problem: State, for L-lactate dehydrogenase (Plasmodium falciparum (isolate CDC / Honduras)) (UniProt Q27743), measured inhibition of the compound listed here: COc1ccc2ncc(Cl)c([C@H](O)CN3CCC(NCc4cc5c(cn4)OCCO5)CC3)c2c1
Result: 1% (inactive)

Problem: State, for L-lactate dehydrogenase (Plasmodium falciparum (isolate CDC / Honduras)) (UniProt Q27743), measured inhibition of the compound listed here: CCOC(=O)c1ccc(N2CCCCC2)c(NC(=O)C(Cl)(Cl)Cl)c1
Result: 1% (inactive)

Problem: State, for L-lactate dehydrogenase (Plasmodium falciparum (isolate CDC / Honduras)) (UniProt Q27743), measured inhibition of the compound listed here: C=CC(C)C1OC(=O)c2cc(OC)cc(OC)c21 (stereo not given)
Result: -4% (inactive)

Problem: State, for L-lactate dehydrogenase (Plasmodium falciparum (isolate CDC / Honduras)) (UniProt Q27743), measured inhibition of the compound listed here: CCOc1cc(OCC)c2ccccc2c1CNCCCCCCNCc1c(OCC)cc(OCC)c2ccccc12
Result: 2% (inactive)

Problem: State, for L-lactate dehydrogenase (Plasmodium falciparum (isolate CDC / Honduras)) (UniProt Q27743), measured inhibition of the compound listed here: NC(=O)c1c(Cl)nc2ccccc2c1Cl
Result: -2% (inactive)

Problem: State, for L-lactate dehydrogenase (Plasmodium falciparum (isolate CDC / Honduras)) (UniProt Q27743), measured inhibition of the compound listed here: CN1CCOc2ccc(Nc3nnc(-c4cccc(-c5cccnc5)c4)o3)cc2C1
Result: -1% (inactive)

Problem: State, for L-lactate dehydrogenase (Plasmodium falciparum (isolate CDC / Honduras)) (UniProt Q27743), measured inhibition of the compound listed here: CS(=O)(=O)CCNCc1nc(-c2ccc3c(Nc4ccc(F)c(O)c4)ccnc3c2)cs1
Result: 3% (inactive)

Problem: State, for L-lactate dehydrogenase (Plasmodium falciparum (isolate CDC / Honduras)) (UniProt Q27743), measured inhibition of the compound listed here: Cc1[nH]c(C)c(-c2ccc(Oc3cccc(OC(F)(F)F)c3)cc2)c(=O)c1Br
Result: -7% (inactive)

Problem: State, for L-lactate dehydrogenase (Plasmodium falciparum (isolate CDC / Honduras)) (UniProt Q27743), measured inhibition of the compound listed here: CN(C)c1c(CNCCCCCCNCc2ccc3ccccc3c2N(C)C)ccc2ccccc12
Result: -2% (inactive)

Problem: State, for L-lactate dehydrogenase (Plasmodium falciparum (isolate CDC / Honduras)) (UniProt Q27743), measured inhibition of the compound listed here: Cc1ccccc1N1CCN(c2ccc(C(=O)NC(C)C)cn2)CC1
Result: -2% (inactive)

Problem: State, for L-lactate dehydrogenase (Plasmodium falciparum (isolate CDC / Honduras)) (UniProt Q27743), measured inhibition of the compound listed here: CS(=O)(=O)Cc1ccc(Nc2nccc(-c3c(-c4cccc(NC(=O)c5c(F)cccc5F)c4)nn4ncccc34)n2)cc1
Result: 1% (inactive)

Problem: State, for L-lactate dehydrogenase (Plasmodium falciparum (isolate CDC / Honduras)) (UniProt Q27743), measured inhibition of the compound listed here: CC(C)C(C(=O)n1cc2c(ccc3nc(N)nc(N)c32)n1)C(C)C
Result: -6% (inactive)

Problem: State, for L-lactate dehydrogenase (Plasmodium falciparum (isolate CDC / Honduras)) (UniProt Q27743), measured inhibition of the compound listed here: COc1ccc2nccc([C@@H](O)CN3CCC(NCc4cc5cccc(OCc6ccccc6)c5[nH]4)CC3)c2c1
Result: 1% (inactive)

Problem: State, for L-lactate dehydrogenase (Plasmodium falciparum (isolate CDC / Honduras)) (UniProt Q27743), measured inhibition of the compound listed here: S=C(Nc1ccc(Cl)cc1)Nc1ccc(Nc2ccccc2)cc1
Result: -4% (inactive)

Problem: State, for L-lactate dehydrogenase (Plasmodium falciparum (isolate CDC / Honduras)) (UniProt Q27743), measured inhibition of the compound listed here: c1cncc(Oc2ccc(Nc3ccnc4cc(-c5cccc(CNCCN6CCOCC6)c5)ccc34)cc2)c1
Result: 4% (inactive)

Problem: State, for L-lactate dehydrogenase (Plasmodium falciparum (isolate CDC / Honduras)) (UniProt Q27743), measured inhibition of the compound listed here: CC1CCN(Cc2c(O)ccc3c(CN4CCC(C)CC4)c(O)ccc23)CC1
Result: -3% (inactive)

Problem: State, for L-lactate dehydrogenase (Plasmodium falciparum (isolate CDC / Honduras)) (UniProt Q27743), measured inhibition of the compound listed here: CCc1nc(N)nc(N)c1-c1ccc2c(c1)CCCC2
Result: -5% (inactive)

Problem: State, for L-lactate dehydrogenase (Plasmodium falciparum (isolate CDC / Honduras)) (UniProt Q27743), measured inhibition of the compound listed here: COc1ccc2nccc([C@@H](O)CN3CCC(NCc4cc5oc(=O)[nH]c5cc4Cl)CC3)c2c1
Result: -2% (inactive)

Problem: State, for L-lactate dehydrogenase (Plasmodium falciparum (isolate CDC / Honduras)) (UniProt Q27743), measured inhibition of the compound listed here: COc1ccc(C2CC(c3ccccc3)=NN2C(=O)c2ccc(Br)o2)cc1 (stereo not given)
Result: -6% (inactive)

Problem: State, for L-lactate dehydrogenase (Plasmodium falciparum (isolate CDC / Honduras)) (UniProt Q27743), measured inhibition of the compound listed here: Cc1ccccc1C1CCN(C2CCC(NC(=O)/C=C/c3ccc(Cl)cc3)CC2)CC1 (stereo not given)
Result: 4% (inactive)

Problem: State, for L-lactate dehydrogenase (Plasmodium falciparum (isolate CDC / Honduras)) (UniProt Q27743), measured inhibition of the compound listed here: CC1=C(C(=O)Nc2cc3cn[nH]c3cc2F)C(c2ccc(Cl)c(NS(C)(=O)=O)c2)CC(=O)N1 (stereo not given)
Result: -1% (inactive)

Problem: State, for L-lactate dehydrogenase (Plasmodium falciparum (isolate CDC / Honduras)) (UniProt Q27743), measured inhibition of the compound listed here: CCOC(=O)c1c(-c2ccccc2)c(C(=O)OCC)n2ccccc12
Result: -1% (inactive)

Problem: State, for L-lactate dehydrogenase (Plasmodium falciparum (isolate CDC / Honduras)) (UniProt Q27743), measured inhibition of the compound listed here: Cc1[nH]nc2ccc(-c3cc(OC[C@@H](N)Cc4ccccc4)cnc3-c3cc4ccccc4s3)cc12
Result: -3% (inactive)

Problem: State, for L-lactate dehydrogenase (Plasmodium falciparum (isolate CDC / Honduras)) (UniProt Q27743), measured inhibition of the compound listed here: Cn1c(-c2ccccc2)cc2c3c(N)nc(N)nc3ccc21
Result: -2% (inactive)

Problem: State, for L-lactate dehydrogenase (Plasmodium falciparum (isolate CDC / Honduras)) (UniProt Q27743), measured inhibition of the compound listed here: CN1CCN(CCCNCc2ccc(Nc3nccc(Nc4ccc(Oc5ccccc5)cc4)n3)cc2)CC1
Result: 0% (inactive)

Problem: State, for L-lactate dehydrogenase (Plasmodium falciparum (isolate CDC / Honduras)) (UniProt Q27743), measured inhibition of the compound listed here: NCC(NC(=O)c1ccc(-c2c[nH]c3ncccc23)s1)c1ccccc1 (stereo not given)
Result: 0% (inactive)

Problem: State, for L-lactate dehydrogenase (Plasmodium falciparum (isolate CDC / Honduras)) (UniProt Q27743), measured inhibition of the compound listed here: O=C(Nc1cccc(-c2nn3ccccc3c2-c2ccnc(Nc3ccc(Cc4ccncc4)cc3)n2)c1)c1c(F)cccc1F
Result: -1% (inactive)

Problem: State, for L-lactate dehydrogenase (Plasmodium falciparum (isolate CDC / Honduras)) (UniProt Q27743), measured inhibition of the compound listed here: Cc1[nH]c(C)c(-c2ccc(Oc3cccc(OC(F)(F)F)c3)cc2)c(=O)c1Cl
Result: -1% (inactive)

Problem: State, for L-lactate dehydrogenase (Plasmodium falciparum (isolate CDC / Honduras)) (UniProt Q27743), measured inhibition of the compound listed here: O=C(Nc1ccc(SC(F)(F)F)cc1)Nc1ccnc2ccccc12
Result: -2% (inactive)

Problem: State, for L-lactate dehydrogenase (Plasmodium falciparum (isolate CDC / Honduras)) (UniProt Q27743), measured inhibition of the compound listed here: Cc1cc2nc(-c3ccc(C(=O)NC4CCN(Cc5ccccc5)CC4)s3)[nH]c2cc1C
Result: 1% (inactive)

Problem: State, for L-lactate dehydrogenase (Plasmodium falciparum (isolate CDC / Honduras)) (UniProt Q27743), measured inhibition of the compound listed here: Nc1nnc(-c2ccc(Cl)c(Br)c2)c(N)n1
Result: -3% (inactive)

Problem: State, for L-lactate dehydrogenase (Plasmodium falciparum (isolate CDC / Honduras)) (UniProt Q27743), measured inhibition of the compound listed here: CC(C)NCc1ccc(-c2ccc(NC(=O)c3cccc(C#N)c3)cc2)cc1
Result: -2% (inactive)

Problem: State, for L-lactate dehydrogenase (Plasmodium falciparum (isolate CDC / Honduras)) (UniProt Q27743), measured inhibition of the compound listed here: c1cc(-c2ccc(CN3CCCC3)cc2)cc(-c2nc3ccccc3[nH]2)c1
Result: 0% (inactive)
